B1: STX5 (parent)
chain: ESTIVELGSIFQQLAHMVKEQEET

# Variants of: B1
# procedureSummary: protein stability index of a GFP-peptide fusion (GPS, HEK-293T) (PSI 1-6); higher = more stable;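 further: lentivirally expressed fusions sorted by FACS into six bins by GFP to DsRed ratio, PSI derived from sequencing read proportions per bin multiplied by bin number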
# testContext: c terminus: a fixed tail appended
endpointLabel: protein stability index
// no unit string in output, number only

{"sequenceInput": "EHTIVELGSIFQQLAHMVKEQEET", "protein stability index": 1.92}
{"sequenceInput": "ESTIVELGSIFQQLAHMVKWQEET", "protein stability index": 1.86}
{"sequenceInput": "ESTIVELGSIFQQLAHMVKEYEET", "protein stability index": 2.23}
{"sequenceInput": "ESTIVELGSIFYQLAHMVKEQEET", "protein stability index": 2.17}
{"sequenceInput": "ESTIVELGSIFQQLAHMVKEQEEQ", "protein stability index": 1.59}
{"sequenceInput": "ESTIVELGSIFQQLAHMVKEQEIT", "protein stability index": 2.38}

Prompt: Find the recorded protein stability index belonging to NSTIVELGSIFQQLAHMVKEQEET and report it.
Completion: 2.22

Prompt: Find the recorded protein stability index belonging to ESTIVELGSIFQQLAHFVKEQEET and report it.
Completion: 2.46

meta.source: the supplement of paper PMC10567573
